Values from patent US6066672A

# target: angiotensin IV receptor (Cavia porcellus)
# Sequence (H0VNM7 1-1025): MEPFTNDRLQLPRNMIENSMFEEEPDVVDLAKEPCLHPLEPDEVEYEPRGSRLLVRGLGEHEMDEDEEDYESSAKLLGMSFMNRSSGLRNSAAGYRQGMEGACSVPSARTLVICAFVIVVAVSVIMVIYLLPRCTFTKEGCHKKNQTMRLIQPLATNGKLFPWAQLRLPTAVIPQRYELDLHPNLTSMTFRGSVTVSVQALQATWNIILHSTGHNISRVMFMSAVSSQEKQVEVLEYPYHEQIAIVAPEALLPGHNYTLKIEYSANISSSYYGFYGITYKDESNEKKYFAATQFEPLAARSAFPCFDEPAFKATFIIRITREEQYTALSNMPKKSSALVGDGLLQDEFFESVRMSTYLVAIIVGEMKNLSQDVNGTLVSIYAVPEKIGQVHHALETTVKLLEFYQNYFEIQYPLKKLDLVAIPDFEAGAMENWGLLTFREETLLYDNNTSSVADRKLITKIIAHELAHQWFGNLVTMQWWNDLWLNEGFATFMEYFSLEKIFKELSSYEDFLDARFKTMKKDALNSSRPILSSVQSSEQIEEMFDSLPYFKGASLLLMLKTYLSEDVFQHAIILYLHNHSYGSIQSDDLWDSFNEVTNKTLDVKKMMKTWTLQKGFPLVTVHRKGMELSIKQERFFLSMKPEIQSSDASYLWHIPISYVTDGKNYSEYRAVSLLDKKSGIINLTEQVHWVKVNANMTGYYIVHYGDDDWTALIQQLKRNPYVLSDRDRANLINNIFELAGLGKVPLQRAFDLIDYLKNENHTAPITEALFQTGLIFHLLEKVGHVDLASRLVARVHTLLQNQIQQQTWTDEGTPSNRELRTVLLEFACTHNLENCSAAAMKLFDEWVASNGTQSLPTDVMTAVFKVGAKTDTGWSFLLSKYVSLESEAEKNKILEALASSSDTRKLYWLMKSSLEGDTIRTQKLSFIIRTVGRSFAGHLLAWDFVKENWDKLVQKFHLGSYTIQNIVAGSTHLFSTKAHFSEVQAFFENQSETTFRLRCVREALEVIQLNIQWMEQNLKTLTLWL
pIC50: −log10 of the molar value. Where a name gives a salt, the structure may show the parent alone.
Would you mind labelling by pIC50? At or over 8 is true, under is false.

IN: Threshold query (pIC50 >= 8) on CCCC[C@H](N)CN[C@@H](Cc1ccc(O)cc1)C(=O)N[C@H](/C=C/c1cccc2ccccc12)CC(C)C [Example 15, dihydrochloride]
OUT: true

IN: Threshold query (pIC50 >= 8) on CCCC[C@H](N)CN[C@H](CN[C@H](C(=O)OC)[C@@H](C)CC)Cc1ccc(O)cc1 [Example 31, trihydrochloride]
OUT: false

IN: Threshold query (pIC50 >= 8) on CCCC[C@H](N)CN[C@@H](Cc1ccc(O)cc1)C(=O)N[C@H](CCc1ccc(C(=O)OC)cc1)CC(C)C [Example 12, dihydrochloride]
OUT: false

IN: Threshold query (pIC50 >= 8) on CCCC[C@H](N)CN[C@@H](Cc1ccc(O)cc1)C(=O)N[C@H](CCc1ccc(C)cc1)[C@@H](C)CC [Example 2, dihydrochloride]
OUT: true

IN: Threshold query (pIC50 >= 8) on CCCC[C@H](N)CN[C@@H](Cc1ccc(O)cc1)C(=O)N[C@H](/C=C/c1ccc(Cl)cc1)CC(C)C [Example 19, dihydrochloride]
OUT: true

IN: Threshold query (pIC50 >= 8) on CCCC[C@H](N)CN[C@@H](Cc1ccc(O)cc1)C(=O)N[C@H](CCc1ccc(C(=O)O)cc1)CC(C)C [Example 14, dihydrochloride]
OUT: false

IN: Threshold query (pIC50 >= 8) on CCCC[C@H](N)CN[C@@H](Cc1ccc(O)cc1)C(=O)N[C@H](/C=C/c1ccc2ccccc2n1)CC(C)C [Example 23, trihydrochloride]
OUT: true

IN: Threshold query (pIC50 >= 8) on CCCC[C@H](N)CN[C@@H](Cc1ccc(O)cc1)C(=O)N[C@H](CCc1ccc(-c2ccccc2)cc1)CC(C)C [Example 22, dihydrochloride]
OUT: false

IN: Threshold query (pIC50 >= 8) on CCCC[C@H](N)CN[C@H](CN[C@H](/C=C/c1ccccc1)CC(C)C)Cc1ccc(O)cc1 [Example 29, trihydrochloride]
OUT: false

IN: Threshold query (pIC50 >= 8) on CCCC[C@H](N)CN[C@@H](Cc1ccc(O)cc1)C(=O)N[C@H](/C=C/c1ccc(C(=O)OC)cc1)CC(C)C [Example 11, dihydrochloride]
OUT: true

IN: Threshold query (pIC50 >= 8) on CCCC[C@H](N)CN[C@@H](Cc1ccc(O)cc1)C(=O)N[C@H](/C=C/c1ccncc1)CC(C)C [Example 7, trihydrochloride]
OUT: true
